All values here come from patent US7196192B2.

# IC50 values compiled below
- test system: FKBP (Homo sapiens, UniProt P62942)
- Sequence (P62942 whole entry): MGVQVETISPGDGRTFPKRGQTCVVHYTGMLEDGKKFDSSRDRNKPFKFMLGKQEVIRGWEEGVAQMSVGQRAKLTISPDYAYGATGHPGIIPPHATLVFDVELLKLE
- test protocol: FKBP competitive binding assay based on fluorescence polarization (FP)
- assay setup: competitive FP binding, methods of Example 2.5; read-out: FKBP IC50

compound	test system	IC50
CCOC(=O)N(C)C1CC2CCC(C)C(O)(O2)C(=O)C(=O)N2CCCCC2C(=O)OC(C(C)CC2CCC(O)C(OC)C2)CC(=O)C(C)C=C(C)C(O)C(OC)C(=O)C(C)CC(C)C=CC=CC=C1C (single isomer, unassigned) [28-epi-7R-N-methyl-ethylcarbamate]	FKBP (Homo sapiens, UniProt P62942)	0.12 µM
COc1ccccc1COC1CC2CCC(C)C(O)(O2)C(=O)C(=O)N2CCCCC2C(=O)OC(C(C)CC2CCC(O)C(OC)C2)CC(=O)C(C)C=C(C)C(O)C(OC)C(=O)C(C)CC(C)C=CC=CC=C1C (single isomer, unassigned) [28-epi-7R-2′-methoxybenzyloxy]	FKBP (Homo sapiens, UniProt P62942)	0.0046 µM
COC1CC(CC(C)C2CC(=O)C(C)C=C(C)C(O)C(OC)C(=O)C(C)CC(C)C=CC=CC=C(C)C(c3ccc(C)s3)CC3CCC(C)C(O)(O3)C(=O)C(=O)N3CCCCC3C(=O)O2)CCC1O (stereo not drawn) [28-epi-7S-methylthiophene]	FKBP (Homo sapiens, UniProt P62942)	0.086 µM
CO[C@@H]1C[C@H](C[C@@H](C)[C@@H]2CC(=O)[C@H](C)/C=C(\C)[C@H](O)[C@@H](OC)C(=O)[C@H](C)C[C@H](C)/C=C/C=C/C=C(\C)[C@H](Oc3ccccc3)C[C@@H]3CC[C@@H](C)[C@@](O)(O3)C(=O)C(=O)N3CCCC[C@H]3C(=O)O2)CC[C@H]1O [28-epi-7R-phenyloxy]	FKBP (Homo sapiens, UniProt P62942)	0.019 µM
